# EXPERIMENT NOTES: Study BP40387 Part 2 (FE) food effect on pharmacokinetics
# Format: in vivo, human
# SETTINGS: both sexes, human, plasma, oral, 100 mg, 100 mg single dose, fed state (high fat, high calorie breakfast); read-out: Median Tmax
MEASUREMENT TYPE: Tmax

Q: Dear colleague, I am looking for the recorded Tmax of the following molecule: Cn1nnnc1Cn1nnc2c(N3CC[C@H](O)C3)nc(C(C)(C)C)nc21 [RO6868847]
A: 4 h

###

# EXPERIMENT NOTES: Study BP40387 Part 1 (SAD) pharmacokinetics, healthy participants
# Format: in vivo, human
# SETTINGS: both sexes, human, plasma, oral; single dose, range across doses; read-out: apparent terminal elimination half-life
MEASUREMENT TYPE: half-life

Q: Dear colleague, I am looking for the recorded half-life of the following compound: Cn1nnnc1Cn1nnc2c(N3CC[C@H](O)C3)nc(C(C)(C)C)nc21 [RO6868847]
A: 6.95 to 18.5 h

###

# EXPERIMENT NOTES: clinical
# SETTINGS: both, human, plasma, oral, 200 mg
MEASUREMENT TYPE: Tmax (h)
Provide only the numeric value, understood in h.

Q: Dear colleague, I am looking for the recorded Tmax of the following compound: Cn1nnnc1Cn1nnc2c(N3CC[C@H](O)C3)nc(C(C)(C)C)nc21 [RO6868847]
A: 3

###

# EXPERIMENT NOTES: clinical
# SETTINGS: both, human, plasma, oral, 20 mg
MEASUREMENT TYPE: AUC (ng·h/mL)
Provide only the numeric value, understood in ng·h/mL.

Q: Dear colleague, I am looking for the recorded AUC of the following molecule: Cn1nnnc1Cn1nnc2c(N3CC[C@H](O)C3)nc(C(C)(C)C)nc21 [RO6868847]
A: 2610

###

# EXPERIMENT NOTES: Study BP40387 Part 1 (SAD) pharmacokinetics, healthy participants
# Format: in vivo, human
# SETTINGS: both sexes, human, plasma; single oral 10 mg, fasted, geo mean
MEASUREMENT TYPE: Cmax (ng/mL)
Provide only the numeric value, understood in ng/mL.

Q: Dear colleague, I am looking for the recorded Cmax of the following molecule: `Cn1nnnc1Cn1nnc2c(N3CC[C@H](O)C3)nc(C(C)(C)C)nc21`
A: 111

###

# TEST SYSTEM: rat CB2 (Rattus norvegicus, UniProt Q9QZN9)
# Sequence (Q9QZN9 whole entry): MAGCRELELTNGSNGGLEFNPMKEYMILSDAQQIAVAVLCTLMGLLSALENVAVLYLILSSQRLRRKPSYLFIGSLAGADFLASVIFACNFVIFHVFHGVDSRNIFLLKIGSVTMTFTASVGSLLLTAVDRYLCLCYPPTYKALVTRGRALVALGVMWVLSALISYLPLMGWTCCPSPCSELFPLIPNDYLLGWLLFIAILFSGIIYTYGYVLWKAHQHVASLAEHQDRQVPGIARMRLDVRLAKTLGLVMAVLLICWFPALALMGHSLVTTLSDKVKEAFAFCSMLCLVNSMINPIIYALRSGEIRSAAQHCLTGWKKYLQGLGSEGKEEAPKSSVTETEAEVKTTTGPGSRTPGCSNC
# EXPERIMENT NOTES: Forskolin-stimulated cAMP inhibition in stably transfected CHO cells
MEASUREMENT TYPE: IC50
A bare number is not enough; add the unit after it.

Q: Dear colleague, I am looking for the recorded IC50 of the following compound: `Cn1nnnc1Cn1nnc2c(N3CC[C@H](O)C3)nc(C(C)(C)C)nc21`
A: 0.58 nM

###

# EXPERIMENT NOTES: clinical
# SETTINGS: both, human, plasma, oral, 6 mg
MEASUREMENT TYPE: AUC (ng·h/mL)
Provide only the numeric value, understood in ng·h/mL.

Q: Dear colleague, I am looking for the recorded AUC of the following compound: `Cn1nnnc1Cn1nnc2c(N3CC[C@H](O)C3)nc(C(C)(C)C)nc21`
A: 870

###

# EXPERIMENT NOTES: Study BP40387 Part 1 (SAD) pharmacokinetics, healthy participants
# Type: in vivo, human
# SETTINGS: both sexes, human, plasma; single oral 300 mg, fasted, geo mean; read-out: t1/2 (converted)
# Procedure: In Part 1 (SAD) of Study BP40387, in the fasted state, RO6868847 was overall rapidly absorbed; however, the Tmax appeared to shift with increasing dose. Individual Tmax ranged between 1 to 6 hours at 100 mg and 300 mg RO6868847.
MEASUREMENT TYPE: half-life (h)
Provide only the numeric value, understood in h.

Q: Dear colleague, I am looking for the recorded half-life of the following compound: `Cn1nnnc1Cn1nnc2c(N3CC[C@H](O)C3)nc(C(C)(C)C)nc21`
A: 18.5
